- System: SK-MEL-28 melanoma
- method-summary: NCI tumour cell line growth inhibition, 48 h
quantity-kind: TGI

Below: 8 compounds and their reported TGI.
compound	target-under-test	measured
COC(=O)[C@H](Cc1c[nH]c2ccccc12)NC(=O)[C@@H](OC)[C@@H]1Cc2cc3cc(OC4CC(OC5CC(O)C(O)C(C)O5)C(O)C(C)O4)c(C)c(O)c3c(O)c2C(=O)[C@H]1OC1CC(OC2CC(OC3CC(C)(O)C(O)C(C)O3)C(O)C(C)O2)C(O)C(C)O1 (stereo not given in full)	SK-MEL-28 melanoma	0.0193 µM
COc1cc2c3c(n(C)c(=O)c2cc1OC)-c1cc2c(cc1/C3=C\CNCCCN)OCO2	SK-MEL-28 melanoma	39.6 µM
COc1cccc(N2C(=O)[C@H]3CC(C)c4c([nH]c5ccccc45)[C@H]3C2=O)c1 (stereo not given in full)	SK-MEL-28 melanoma	> 100 µM
Cc1cccc2c(N)c3cccc(C(=O)NCC[N+](C)(C)Cc4c([N+](=O)[O-])ncn4C)c3nc12	SK-MEL-28 melanoma	> 100 µM
Cc1ccc(C(=O)Nc2ccc(CN3CCN(C)CC3)c(C(F)(F)F)c2)cc1C#Cc1cnc(N)c2ccccc12	SK-MEL-28 melanoma	1.15 µM
CC1(C)CC(=O)C(/C=N/c2nc(-c3ccccc3)cs2)=C(O)C1	SK-MEL-28 melanoma	> 100 µM
COc1ccc2c3c(coc13)C(CCC(=O)O)CC2 (stereo not given)	SK-MEL-28 melanoma	> 100 µM
CCOC(=O)C(Cc1cn(S(=O)(=O)c2ccccc2)c2ccccc12)(NC(C)=O)C(=O)OCC	SK-MEL-28 melanoma	> 100 µM

Parameter requested: TGI. Apply to each item below.
1. COc1cc(O)c2c(c1)OCC(Cc1ccc(O)cc1)C2=O (stereo not given)
2. CCCCCCCCCCN(CCCCCCCCCC)C(=O)COc1c2cc(C(C)(C)C)cc1Cc1cc(C(C)(C)C)cc(c1OCC(=O)N(CCCCCCCCCC)CCCCCCCCCC)Cc1cc(C(C)(C)C)cc(c1OCC(=O)N(CCCCCCCCCC)CCCCCCCCCC)Cc1cc(C(C)(C)C)cc(c1OCC(=O)N(CCCCCCCCCC)CCCCCCCCCC)C2
3. CC(C)c1ccc(C(c2ccc(OCC(=O)O)cc2)c2ccc(C(C)C)cc(=O)c2O)c(O)c(=O)c1
4. O=c1oc2cc(O)ccc2c(O)c1C(c1ccccc1F)c1c(O)c2ccc(O)cc2oc1=O
5. CCCCN1CSC(=S)N(Cc2ccccc2)C1
6. NNc1nncc2n[nH]nc12
7. CC(=O)N1C/C(=C\c2ccc(N(C)C)cc2)C(=O)/C(=C/c2ccc(N(C)C)cc2)C1
8. C=C1CC[C@@H]2[C@](C)(COC(C)=O)[C@H](OC(C)=O)CC[C@@]2(C)[C@@H]1CC(Nc1ccc(S(=O)(=O)Nc2ncccn2)cc1)C1=CCOC1=O (stereo not given in full)

Result string:
> 100 µM
24.1 µM
24.5 µM
> 100 µM
> 100 µM
> 100 µM
> 100 µM
3.24 µM

Parameter requested: TGI. Apply to each item below.
1. CSC1=N/C(=C\c2ccccc2)C(=O)N1CN1CCCCC1
2. CCc1ccc(Nc2ccc([N+](=O)[O-])cc2[N+](=O)[O-])cc1
3. Cc1ccc(C)c(COCCOCn2ccc(N)nc2=O)c1
4. C=C1CC[C@H](O)C(C)(C)[C@@H]1CC/C(C)=C/CC/C=C(\C)CC/C=C(\C)CCC=C(C)C
5. COc1cc2c(c(OC)c1OC)C(=O)[C@@H]1c3ccc([N+](=O)[O-])cc3C(=O)N(CCCBr)[C@H]21

Result string:
> 100 µM
> 100 µM
> 100 µM
> 100 µM
> 100 µM

----------
- Tested on: SK-MEL-28 melanoma
- method-summary: NCI tumour cell line growth inhibition, 48 h
quantity-kind: GI50

Below: 3 molecules and their reported GI50.
molecule	GI50
C=C[C@H]1C[C@@H]2C[C@@H]3[C@H]4C/C=C\C(=O)NCCCC5NC(=O)C(=C(O)/C=C/[C@@H]4CC(=O)[C@H]3[C@@H]2[C@H]1C)C5=O (stereo partly drawn)	203 nM
C=C1C(=O)O[C@H]2[C@H]1CC/C(COC(=O)c1cc3ccccc3s1)=C\CC[C@@]1(C)O[C@@H]21	1760 nM
Cc1ccc(C(=O)Nc2ccc(CN3CCN(C)CC3)c(C(F)(F)F)c2)cc1C#Cc1cnc(N)c2ccccc12	479 nM

Parameter requested: GI50. Apply to each item below.
1. COc1ccc(/C=C\c2cc(OC)c(OC)c(OC)c2)cc1OC(=O)NCCN(C)C
2. COc1cc2c3c(n(CCNCCCNCCn4c5c(c6cc(OC)c(OC)cc6c4=O)C(=O)c4ccccc4-5)c(=O)c2cc1OC)-c1ccccc1C3=O
3. O=C1NN(C2=NNC3(C(=O)N2)c2ccccc2-c2ccccc23)C(c2ccccc2)=N/C1=C/c1ccc(O)cc1
4. Cc1ccc2[nH]c(C(=O)NN3C(=O)C(C)SC34CCCC(C)C4)c(-c3ccccc3)c2c1 (stereo not drawn)
5. C=C1CC[C@@H]2[C@](C)(COC(C)=O)[C@H](OC(C)=O)CC[C@@]2(C)[C@@H]1CC(Nc1ccc(S(=O)(=O)Nc2ncccn2)cc1)C1=CCOC1=O (stereo partly drawn)

Result string:
["< 0.1 nM", "1780 nM", "83 µg/mL", "> 100000 nM", "1690 nM"]

----------
Provide the reported TGI of each item.
- Test system: SK-MEL-2 melanoma
- method-summary: NCI tumour cell line growth inhibition, 48 h

Below: 6 molecules and their reported TGI.
molecule	quantity-kind	measured
Cc1ccc(-c2cc(=O)c3cc(C)c(C)c(C(=O)O)c3o2)cc1C	TGI	> 100 µM
COc1ccc(C2=Nn3c(nnc(Cc4ccc(Cl)cc4)c3=O)SC2)cc1	TGI	> 100 µM
CCc1ccc(Nc2ccc([N+](=O)[O-])cc2[N+](=O)[O-])cc1	TGI	> 100 µM
O=C1C=CC=C/C1=C1\N=C(c2ccccc2OCC(=O)c2ccc(Br)cc2)SS1	TGI	> 100 µM
C=C1CCC23CC(CC[C@@H]2[C@@]12C[C@@H](c1ccoc1)OC2=O)OC3=O (some centres not stated)	TGI	> 100 µM
Cc1ccc(NC(=S)N/N=C(/c2ccccc2)c2ccccn2)cc1	TGI	15.1 µM

Parameter requested: TGI. Apply to each item below.
1. CN(C)CCCN1c2ccccc2Sc2cnccc21
2. COc1cccc(/C=C2\C(=O)N(C(=O)c3ccc(NC(C)=O)cc3)N=C2C)c1
3. CCC(=O)c1c(C(F)(F)F)n([O-])c2ccc(C)cc2[n+]1=O
4. COc1ccc2nc3cc(Cl)ccc3c(NCCN)c2c1

Result string:
1. 94 µM
2. > 100 µM
3. > 50 µM
4. 31.2 µM

Parameter requested: TGI. Apply to each item below.
1. O=C1N[C@@H](c2c[nH]c3cc(Br)ccc23)C(=O)N[C@H]1c1c[nH]c2cc(Br)ccc12
2. C/C=C1/C(=C/c2[nH]c(/C=c3\[nH]/c(=C/C4=NC(=O)C(CC)=C4C)c(C)c3CCC(=O)O)c(CCC(=O)O)c2C)NC(=O)C1C (configuration not stated)

Result string:
1: > 100 µM; 2: > 150 µg/mL

----------
- Test system: NCI-H522 lung
- method-summary: NCI tumour cell line growth inhibition, 48 h
Provide the reported TGI of each item.
One number for each entry, in µM.

Below: 3 compounds and their reported TGI.
compound	target-under-test	TGI [µM]
CCCCCCCCCCN(CCCCCCCCCC)C(=O)COc1c2cc(C(C)(C)C)cc1Cc1cc(C(C)(C)C)cc(c1OCC(=O)N(CCCCCCCCCC)CCCCCCCCCC)Cc1cc(C(C)(C)C)cc(c1OCC(=O)N(CCCCCCCCCC)CCCCCCCCCC)Cc1cc(C(C)(C)C)cc(c1OCC(=O)N(CCCCCCCCCC)CCCCCCCCCC)C2	NCI-H522 lung	10.2
C=C(C)C(=O)OC1CCC2(C)C(CCC3C2CCC2(C)C(c4ccc(=O)oc4)CC4OC432)C1 (configuration not stated)	NCI-H522 lung	8.78
COc1ccc(C2SCC(=O)N2NC(=O)Nc2c(C)nc3ccccn23)cc1 (configuration not stated)	NCI-H522 lung	95.4

# compound O=c1c2cc(S(=O)(=O)O)ccc2nc(COc2ccc(Oc3ccc(Cl)cc3Cl)cc2)n1-c1ccc(Cl)cc1Oc1c(Cl)cccc1Cl ; its TGI = 48.4

----------
- Tested on: LOX IMVI melanoma
- method-summary: NCI tumour cell line growth inhibition, 48 h
quantity-kind: TGI (µM)
Answers are plain numbers, in µM.

compound	target-under-test	measured
Fc1ccc(C2SCc3nc4ccccc4n32)cc1Cl (stereo not drawn)	LOX IMVI melanoma	40.3

Parameter requested: TGI. Apply to each item below.
1. CCC(=O)c1c(C(F)(F)F)n([O-])c2ccc(C)cc2[n+]1=O
2. CC(C)(C)c1ccc(O)c(CN(Cc2cc(C(C)(C)C)ccc2O)c2ccccc2)c1

Result string:
[17.9, 26.8]

Parameter requested: TGI. Apply to each item below.
1. CCN(CC)CC(=O)O[C@]1(CC)C(=O)OCc2c1cc1n(c2=O)Cc2cc3ccccc3nc2-1
2. O=C(/C=C\n1cnc(-c2cc(C(F)(F)F)cc(C(F)(F)F)c2)n1)NNc1cnccn1
3. CC(C)CCCC(=O)CCCCCCC(=O)CCN(O)C(=O)C(N)CO (stereo not drawn)
4. COc1ccc(OC)c(C(=O)c2oc3ccc(Br)cc3c2N)c1
5. CCOC(=O)c1c(C)nc2c(c1N)/C(=C/c1ccc(OC)cc1)C(=O)N2Cc1ccc(F)cc1
6. N#CCC(=O)NC1C2CC3CC(C2)CC1C3 (stereo not drawn)
7. CC(=O)OCCOCn1cnc2c(Cl)nc(Cl)nc21

Result string:
1. 0.177
2. 1.5
3. 30.9
4. 22.4
5. 0.34
6. 23.8
7. 15.8

Where these numbers come from: PubChem BioAssay (NCI)
